Items are presented alongside their recorded Kb.
# Tested System: isolated ductus deferens of rats (Rattus norvegicus, UniProt P43140)
# Construct: Norepinephrine causes contractions of the isolated ductus deferens of rats; from tissue; host or cells: isolated ductus deferens of rats
# Sequence (P43140 whole entry): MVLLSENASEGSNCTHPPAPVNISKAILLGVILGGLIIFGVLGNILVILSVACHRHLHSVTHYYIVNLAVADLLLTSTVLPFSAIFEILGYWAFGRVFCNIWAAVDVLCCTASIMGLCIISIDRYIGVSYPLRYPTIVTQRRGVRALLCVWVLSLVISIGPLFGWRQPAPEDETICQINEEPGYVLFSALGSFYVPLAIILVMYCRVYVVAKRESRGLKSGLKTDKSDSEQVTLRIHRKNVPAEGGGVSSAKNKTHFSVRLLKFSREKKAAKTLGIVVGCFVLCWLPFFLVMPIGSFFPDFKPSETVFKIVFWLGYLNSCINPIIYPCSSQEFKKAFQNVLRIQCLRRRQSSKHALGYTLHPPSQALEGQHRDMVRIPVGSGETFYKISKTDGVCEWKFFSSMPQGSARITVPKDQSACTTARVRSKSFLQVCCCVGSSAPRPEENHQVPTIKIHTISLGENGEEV
# Test Protocol: In vitro α-adrenolytic activity on isolated ductus deferens
# Experimental Setup: negative log of molar concentration requiring doubled norepinephrine concentration, read-out: pA2, α-blocking action towards norepinephrine on isolated ductus deferens (converted)
Structures can show the parent of a compound that is named as a salt.
The reply should be a number in nM, with the unit left off.

// solved cases for Kb follow
CCC(=O)Oc1cc(C(C)C)c(OCCN2CCCC2)cc1C [B 1125] :: 72.4
CC(=O)Oc1cc(C(C)C)c(OCCN(C)C)cc1C [Thymoxamine, reference compound] :: 56.2
CCCC(=O)Oc1cc(C(C)C)c(OCCN2CCCC2)cc1C [B 1132, hydrochloride] :: 44.7
CC(=O)Oc1cc(C(C)C)c(OCCN2CCCC2)cc1C [B 1024, hydrochloride] :: 105

Prompt line: For the compound CCCCCCCCCC(=O)Oc1cc(C(C)C)c(OCCN2CCCC2)cc1C [B 1134] , what Kb is on record?
Response line: 269

###

# Test Protocol: Toxicity: 50% lethal dose in mice (p.o. and i.v.)
# Experimental Setup: mouse, in vivo, intravenous, read-out: LD50 i.v.
Counter-ions that a name gives are not always drawn.
Hi! Could you tag entries with LD50 below 40 mg/kg as condition met, and those at or above as condition not met? Much appreciated.

Cc1ccc(C(C)C)c(OCCN2CCCC2)c1 [B 1007, hydrochloride] :: condition not met
CCCCCCCCCC(=O)Oc1cc(C(C)C)c(OCCN2CCCC2)cc1C :: condition met
CC(=O)Oc1cc(C(C)C)c(OCCN(C)C)cc1C [Thymoxamine, reference compound] :: condition not met
Cc1cc(OCCN2CCCC2)c(C(C)C)cc1O [B 1058, hydrochloride] :: condition met

Attention now turns to another entry.
Prompt line: Is LD50 strictly under 40 mg/kg for the entry CC(=O)Oc1cc(C(C)C)c(OCCN2CCCC2)cc1C [B 1024, hydrochloride] ?
Response line: condition met

###

# System: arterial pressure
# Test Protocol: Urethral specificity in anesthetized dogs: arterial hypotension
# Assay type: in vivo
# Experimental Setup: i.v., dose causing 20% arterial hypotension
Structures can show the parent of a compound that is named as a salt.
Could you label it YES if measured Arterial hypotension ED20 is 10 mg/kg or higher, and NO otherwise?

CCC(=O)Oc1cc(C(C)C)c(OCCN2CCCC2)cc1C :: YES
CCCCCCCCCC(=O)Oc1cc(C(C)C)c(OCCN2CCCC2)cc1C :: YES
Cc1ccc(C(C)C)c(OCCN2CCCC2)c1 [B 1007, hydrochloride] :: NO
CC(=O)Oc1cc(C(C)C)c(OCCN2CCCC2)cc1C [B 1024, hydrochloride] :: NO

Would you kindly look at the next entry?
Prompt line: Form field: Arterial hypotension ED20 at least 10 mg/kg? Entry: CC(=O)Oc1cc(C(C)C)c(OCCN(C)C)cc1C [Thymoxamine, reference compound]
Response line: NO

###

# Test Protocol: Toxicity: 50% lethal dose in mice (p.o. and i.v.)
# Experimental Setup: mouse, in vivo, oral, read-out: LD50 p.o.
# Text: The following 50% lethal doses were obtained after oral administration (p.o.) and intravenous administration (i.v.) of the substances to mice.
Counter-ions that a name gives are not always drawn.
// reported LD50 for each item listed
Give a bare numeral; the unit mg/kg is implied.

Worked cases, answers included:
Cc1cc(OCCN2CCCC2)c(C(C)C)cc1O [B 1058, hydrochloride] :: 80
CC(=O)Oc1cc(C(C)C)c(OCCN2CCCC2)cc1C [B 1024, hydrochloride] :: 100
Cc1ccc(C(C)C)c(OCCN2CCCC2)c1 [B 1007, hydrochloride] :: 330

Prompt line: Entry under review: CC(=O)Oc1cc(C(C)C)c(OCCN(C)C)cc1C [Thymoxamine, reference compound] . Reported LD50?
Response line: 300
